# credit: patent US4788206A

biological target: PAF Binding, dog platelets (Canis lupus familiaris); construct: Washed platelets were prepared by resuspending the platelet pellet once with PBS containing 1 mM EDTA; from tissue; host or cells: washed platelets from dog blood; assay: PAF Binding Assay (inhibition of 3H-PAF binding to washed dog platelets); conditions: dog platelets, 3H-PAF, 10 minutes at room temperature; read-out: Inhib of PAF Binding IC50
Sequence (A0A8I3NSH0 1-343): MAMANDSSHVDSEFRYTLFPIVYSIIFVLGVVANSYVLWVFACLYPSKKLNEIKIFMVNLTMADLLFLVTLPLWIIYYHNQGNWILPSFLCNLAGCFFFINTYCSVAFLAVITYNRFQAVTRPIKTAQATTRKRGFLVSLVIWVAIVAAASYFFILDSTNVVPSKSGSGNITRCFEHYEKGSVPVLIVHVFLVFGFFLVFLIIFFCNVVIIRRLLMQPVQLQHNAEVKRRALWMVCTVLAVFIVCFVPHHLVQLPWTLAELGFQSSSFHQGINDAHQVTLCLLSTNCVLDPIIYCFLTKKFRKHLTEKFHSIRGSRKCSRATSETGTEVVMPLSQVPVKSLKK
MEASURED QUANTITY: pIC50
Give bare numbers, as −log10 of the molar value.

Sample records with pIC50:
>>> numeric_readout("COc1ccc(/C(=C/C=C/C(=O)NCCCCc2cccnc2)c2cccnc2)cc1")
7.30
>>> numeric_readout("COc1cccc(/C(=C\\C=C\\C(=O)NCCCCc2cccnc2)c2ccccc2)c1")
7.46
>>> numeric_readout("COc1cccc(C(=C/C=C/C(=O)N[C@H](C)CCCc2cccnc2)c2cccc(OC)c2)c1")
7.46
>>> numeric_readout("COc1ccc(/C(=C/C=C/C(=O)N[C@H](C)CCCc2cccnc2)C(C)C)cc1")
7.52
>>> numeric_readout("COc1ccc(C(=C/C=C/C(=O)NC(C)CCCc2cccnc2C)c2ccc(OC)cc2)cc1 (racemic)")
7.52

For the 6 compounds below, give their pIC50 values.
1. O=C(/C=C/C=C(c1ccccc1C(F)(F)F)c1ccccc1C(F)(F)F)NCCCCc1cccnc1
2. CC(CCCc1cccnc1)NC(=O)/C=C/C=C(c1ccccc1)c1ccccc1 (racemic)
3. COc1ccc(C(=C/C=C/C(=O)NC(CCCc2cccnc2)C2CC2)c2ccc(OC)cc2)cc1 (racemic)
4. CCCCC/C(=C/C=C/C(=O)NCCCCc1cccnc1)c1ccc(OC)cc1
5. COc1ccc(/C(=C\C=C\C(=O)NCCCCc2cccnc2)c2ccccc2OC)cc1
6. COc1ccc(C(=C/C=C/C(=O)NCCCc2ccncc2)c2ccc(OC)cc2)cc1

Result block:
7.10
7.00
7.22
7.40
7.35
7.00
